Taken from patent US10221171B2.

Assay: Pharmacokinetics in CD1 mice, single i.p. injection, plasma by HPLC
Assay type: in vivo
Details: mouse, ip
PROPERTY LABEL: Tmax (h)

MOLECULE	RECORDED VALUE
CCn1c(=O)/c(=C2\Sc3cc(Br)ccc3N2C)s/c1=C\c1scc[n+]1Cc1ccc(C(F)(F)F)o1.[Cl-] [JG-294]	2

====

Microsomal min values for the molecules below.
Test: Microsomal stability
Assay type: in vitro ADME

MOLECULE	OPERATOR	Microsomal min / min
CCc1ccc2c(c1)S/C(=c1/s/c(=C\c3scc[n+]3Cc3ccc(C(F)(F)F)o3)n(CC)c1=O)N2C.[Cl-]	=	37
CCn1c(=O)/c(=C2\Sc3cc(Cl)ccc3N2C)s/c1=C\c1scc[n+]1Cc1ccc(Br)s1.[Cl-] [JG-231, reference compound]	>	60
CCn1c(=O)/c(=C2\Sc3cc(Br)ccc3N2C)s/c1=C\c1scc[n+]1Cc1ccc(C(F)(F)F)o1.[Cl-]	>	60
CCn1c(=O)/c(=C2\Sc3cc(SC)ccc3N2C)s/c1=C\c1scc[n+]1Cc1ccccc1C(F)(F)F.[Cl-]	=	23
CCc1ccc2c(c1)S/C(=c1/s/c(=C\c3scc[n+]3Cc3ccccc3C(=O)OC)n(CC)c1=O)N2C.[Cl-]	=	25
CCn1c(=O)/c(=C2\Sc3cc(SC)ccc3N2C)s/c1=C\c1scc[n+]1Cc1ccccc1SC(F)(F)F.[Cl-]	=	23
CCn1c(=O)/c(=C2\Sc3cc(Cl)ccc3N2C)s/c1=C\c1scc[n+]1Cc1ccccc1.[Cl-] [JG-98, reference compound]	=	37
CCn1c(=O)/c(=C2\Sc3cc(SC)ccc3N2C)s/c1=C\c1scc[n+]1Cc1ccccc1OC(F)(F)F.[Cl-]	=	22
